TARGET SYSTEM: OTUB1 (UniProt Q96FW1)
Sequence (Q96FW1 whole entry, the tested form may be a part): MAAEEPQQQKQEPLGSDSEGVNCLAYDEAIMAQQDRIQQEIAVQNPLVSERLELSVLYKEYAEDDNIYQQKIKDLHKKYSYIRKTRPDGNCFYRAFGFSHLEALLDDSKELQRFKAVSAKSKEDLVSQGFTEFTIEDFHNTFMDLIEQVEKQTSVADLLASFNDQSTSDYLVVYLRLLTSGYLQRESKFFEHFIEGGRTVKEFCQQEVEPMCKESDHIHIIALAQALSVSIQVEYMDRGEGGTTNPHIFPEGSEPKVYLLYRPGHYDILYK
ASSAY PROCEDURE: log2 ratio of Biotin-Ahx-Ub-VS probe labelling (fragment/DMSO); higher = less target engagement (more negative = stronger competition), active = hit call of the paper (q ≤ 0.05, log2 ratio ≤ -1)
PROTOCOL CONDITIONS: compound concentration: 200 uM; treatment time: 3 h
OUTCOME MEASURE: log2 ratio of Biotin-Ahx-Ub-VS probe labelling
Answer with the value's number alone.

Memo: `O=C(CCl)N1CCC(S(=O)(=O)c2ccc(F)cc2)CC1` , reported log2 ratio of Biotin-Ahx-Ub-VS probe labelling: 0.147

What the record says about `CCN(Cc1ccc(C#N)cc1F)C(=O)CCl` : log2 ratio of Biotin-Ahx-Ub-VS probe labelling is -0.377

Query Cc1cccc(C(CNC(=O)CCl)N2CCOCC2)c1.Cl (stereo not drawn) yields log2 ratio of Biotin-Ahx-Ub-VS probe labelling of -0.156

So, O=C(CCl)NC1CCOc2ccccc21 (stereo not drawn) ? Its log2 ratio of Biotin-Ahx-Ub-VS probe labelling was -0.321

Sure, the documented log2 ratio of Biotin-Ahx-Ub-VS probe labelling for O=C(CCl)N1CCOCCC1c1ccccc1 (stereo not drawn) is -0.0821

Briefly, log2 ratio of Biotin-Ahx-Ub-VS probe labelling measured for O=C(CCl)N1CCc2nc[nH]c2C1c1ccc(Cl)cc1 (stereo not drawn) : 0.00111

Lab book: log2 ratio of Biotin-Ahx-Ub-VS probe labelling of `Cl.O=C(CCl)N1CCN(Cc2ccccc2)CC1` noted as -0.185

So, O=C(CCl)N1CCOC(c2cccc(F)c2)C1 (stereo not drawn) ? Its log2 ratio of Biotin-Ahx-Ub-VS probe labelling was -0.175

So, `O=C(CCl)N1CCC2(CCC(O)CC2)CC1` ? Its log2 ratio of Biotin-Ahx-Ub-VS probe labelling was -0.0501

# log2 ratio of Biotin-Ahx-Ub-VS probe labelling (compound: `Cc1cccc(NC(=O)[C@@H]2CCCN2C(=O)CCl)n1` ) is -0.512

Item: `Cl.Cn1cnc2cc(CNC(=O)CCl)ccc21` | log2 ratio of Biotin-Ahx-Ub-VS probe labelling: 0.0608

For reference, reported log2 ratio of Biotin-Ahx-Ub-VS probe labelling for `O=C(CCl)Nc1ccc(F)cc1F` stands at -0.293

Sure, the documented log2 ratio of Biotin-Ahx-Ub-VS probe labelling for CC1(NC(=O)CCl)CCS(=O)(=O)C1 (stereo not drawn) is -0.246

---

TARGET SYSTEM: USP54 (UniProt Q70EL1)
Sequence (Q70EL1 whole entry, the tested form may be a part): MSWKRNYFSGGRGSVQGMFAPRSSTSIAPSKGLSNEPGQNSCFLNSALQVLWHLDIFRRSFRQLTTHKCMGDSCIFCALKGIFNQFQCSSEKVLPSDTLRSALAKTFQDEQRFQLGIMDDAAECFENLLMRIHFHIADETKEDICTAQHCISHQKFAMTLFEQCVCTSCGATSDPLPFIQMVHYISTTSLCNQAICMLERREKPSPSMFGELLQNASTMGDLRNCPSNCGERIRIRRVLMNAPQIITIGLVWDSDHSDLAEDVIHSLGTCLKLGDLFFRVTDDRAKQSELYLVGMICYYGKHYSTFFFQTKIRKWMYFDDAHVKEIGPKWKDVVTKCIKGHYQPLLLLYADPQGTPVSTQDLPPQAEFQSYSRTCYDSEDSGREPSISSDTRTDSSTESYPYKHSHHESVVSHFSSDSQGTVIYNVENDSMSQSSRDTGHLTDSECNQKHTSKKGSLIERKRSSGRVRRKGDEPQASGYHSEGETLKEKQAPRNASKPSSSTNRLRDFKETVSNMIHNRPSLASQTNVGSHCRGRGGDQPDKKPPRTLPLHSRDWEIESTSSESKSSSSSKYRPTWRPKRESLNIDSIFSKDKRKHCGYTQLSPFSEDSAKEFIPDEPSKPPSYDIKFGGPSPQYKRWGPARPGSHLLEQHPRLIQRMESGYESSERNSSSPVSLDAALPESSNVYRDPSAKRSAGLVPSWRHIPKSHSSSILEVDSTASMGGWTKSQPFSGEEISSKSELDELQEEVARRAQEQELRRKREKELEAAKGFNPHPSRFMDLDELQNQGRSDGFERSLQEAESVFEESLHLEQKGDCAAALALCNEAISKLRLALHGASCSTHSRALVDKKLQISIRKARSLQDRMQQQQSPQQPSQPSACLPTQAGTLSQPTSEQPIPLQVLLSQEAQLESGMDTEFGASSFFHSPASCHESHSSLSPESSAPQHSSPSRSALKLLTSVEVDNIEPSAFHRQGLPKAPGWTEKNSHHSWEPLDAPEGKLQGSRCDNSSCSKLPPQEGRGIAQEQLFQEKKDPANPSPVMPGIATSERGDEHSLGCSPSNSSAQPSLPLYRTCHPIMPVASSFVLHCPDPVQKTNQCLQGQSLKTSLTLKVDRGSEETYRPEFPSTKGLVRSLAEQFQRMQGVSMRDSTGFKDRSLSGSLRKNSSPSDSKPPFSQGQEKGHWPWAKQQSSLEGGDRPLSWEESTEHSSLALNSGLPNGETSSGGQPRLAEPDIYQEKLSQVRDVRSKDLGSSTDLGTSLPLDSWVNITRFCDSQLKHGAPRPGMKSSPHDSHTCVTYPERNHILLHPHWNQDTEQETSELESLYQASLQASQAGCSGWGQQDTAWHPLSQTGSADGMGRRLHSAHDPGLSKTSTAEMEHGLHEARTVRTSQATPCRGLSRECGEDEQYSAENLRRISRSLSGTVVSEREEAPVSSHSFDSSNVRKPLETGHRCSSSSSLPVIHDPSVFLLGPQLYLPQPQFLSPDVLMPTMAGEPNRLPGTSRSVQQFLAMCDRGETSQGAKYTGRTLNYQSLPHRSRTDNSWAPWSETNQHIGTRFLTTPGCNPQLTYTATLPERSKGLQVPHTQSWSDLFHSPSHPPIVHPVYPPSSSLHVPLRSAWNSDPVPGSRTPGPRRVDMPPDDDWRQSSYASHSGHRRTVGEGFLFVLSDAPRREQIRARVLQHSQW
ASSAY PROCEDURE: log2 ratio of Biotin-Ahx-Ub-VS probe labelling (fragment/DMSO); higher = less target engagement (more negative = stronger competition), active = hit call of the paper (q ≤ 0.05, log2 ratio ≤ -1)
PROTOCOL CONDITIONS: compound concentration: 200 uM; treatment time: 3 h
Outcome label depends on log2 ratio of Biotin-Ahx-Ub-VS probe labelling relative to 0.04: at/above gives 1, below gives -1.

Identify whether the reported log2 ratio of Biotin-Ahx-Ub-VS probe labelling of the following compound is 0.04 or greater: `O=C(CCl)Nc1cccc(NC(=O)c2ccccc2)c1` -1

Does the compound `Cc1ccc(C)c(NC(=O)CCl)c1` have recorded log2 ratio of Biotin-Ahx-Ub-VS probe labelling that is 0.04 or more? -1

Is the recorded value of log2 ratio of Biotin-Ahx-Ub-VS probe labelling equal to or greater than 0.04 for this compound? `O=C(CCl)N1CCOC2(CCC2)CC1` -1

Confirm if log2 ratio of Biotin-Ahx-Ub-VS probe labelling reported for the compound `O=C(CCl)Nc1nnc(CC(F)(F)F)o1` is 0.04 or above. 1

Tell me whether log2 ratio of Biotin-Ahx-Ub-VS probe labelling is at least 0.04 here: O=C(CCl)N1CCc2ccccc2C(O)C1 (configuration not stated) 1

I'd appreciate it if you could say whether `CCN(C(=O)CCl)C1CCCCC1` has log2 ratio of Biotin-Ahx-Ub-VS probe labelling at least equal to 0.04. 1

Would you say `O=C(CCl)N(Cc1ccsc1)C1CC1` shows log2 ratio of Biotin-Ahx-Ub-VS probe labelling at minimum 0.04? 1
